So I've got a bunch of molecules here, and I need their IC50 values.
tested system: MAPK14;MAPK11;MAPK12 (human) (UniProt Q16539)
method notes: Inhibition of p38 Kinase Activity

In the examples that follow, each entry is paired with its recorded IC50.
• Cc1ccc(C(N)=O)cc1Nc1nc(NCC2CCC2)nc(N[C@H]2CCNC2)n1 = < 1000 nM
• Cc1ccc(C(N)=O)cc1Nc1nc(NC2CCN(Cc3ccccc3)C2)nc(N[C@H]2CCNC2)n1 (some centres undefined) = < 1000 nM
• Cc1ccc(C(N)=O)cc1Nc1nc(N[C@H]2CCN(C3CCCC3)C2)nc(N(C)CC(C)(C)C)n1 = < 1000 nM

Could you tell me IC50 for each of these molecules? They are listed below.
1. CC(=O)NCCNc1nc(Nc2cc(C(N)=O)ccc2C)nc(N(C)CC(C)(C)C)n1
2. CC1(C)[C@H]2CC[C@@H](CNc3nc(Cl)nc(Nc4ccc5ncsc5c4)n3)[C@@H]1C2
3. CCONC(=O)c1ccc(C)c(Nc2nc(NC3CCS(=O)(=O)C3)nc(N(C)CC(C)(C)C)n2)c1 (centres undefined)

1: < 1000 nM; 2: < 10000 nM; 3: < 1000 nM

---

tested system: MAPK14;MAPK11;MAPK12 (human) (UniProt Q16539)
method notes: Inhibition of p38 Kinase Activity
pIC50: −log10 of the molar value.
So I've got a bunch of molecules here, and I need their pIC50 values.

In the examples that follow, each entry is paired with its recorded pIC50.
• CCNC(=O)c1ccc(C)c(Nc2nc(N[C@H]3CCNC3)nc(N(C)CC(C)(C)C)n2)c1 = > 6.00
• Cc1ccc(C(N)=O)cc1Nc1nc(NCC2(C)CCCC2)nc(N[C@H]2CCNC2)n1 = > 6.00
• NC(=O)c1ccc(N)c(Nc2nc(NC3CCNC3)nc(N3CCCC3)n2)c1 (centres undefined) = > 6.00
• Cc1ccc(C(N)=O)cc1Nc1nc(N[C@H]2CCN(Cc3cccc(Cl)c3)C2)nc(N(C)CC(C)C)n1 = > 6.00
• Cc1ccc(C(N)=O)cc1Nc1nc(N)nc(NC[C@@H]2CC[C@H]3C[C@@H]2C3(C)C)n1 = > 6.00

Could you tell me pIC50 for each of these molecules? They are listed below.
1. Cc1ccc(C(=O)O)cc1Nc1nc(N[C@H]2CCNC2)nc(N(C)CC(C)(C)C)n1
2. Cc1cccc(CN2CC[C@H](Nc3nc(Nc4cc(C(N)=O)ccc4C)nc(N(C)CC(C)C)n3)C2)c1
3. CONC(=O)c1ccc(C)c(Nc2nc(N[C@@H]3CCNC3)nc(N(C)CC(C)C(F)(F)F)n2)c1 (some centres undefined)
4. CCONC(=O)c1ccc(C)c(Nc2nc(N(C)CC(C)(C)C)nc(N3CCCN(C)CC3)n2)c1

1: > 6.00; 2: > 6.00; 3: > 6.00; 4: > 6.00

---

So I've got a bunch of compounds here, and I need their IC50 values.
tested system: MAPK14;MAPK11;MAPK12 (human)
method notes: Inhibition of p38 Kinase Activity

* CN(CC(C)(C)C)c1nc(N[C@@H]2CCNC2)nc(Sc2cc(C(N)=O)ccc2F)n1 | < 30000 nM

Could you tell me IC50 for each of these compounds? They are listed below.
1. CCNC(=O)c1ccc(C)c(Nc2nc(NC[C@H]3CCCN3)nc(N(C)CC(C)C)n2)c1
2. Cc1ccc(C(N)=O)cc1Nc1nc(N[C@H]2CCNC2)nc(N(C)CC2CCCC2)n1
3. CCC(C)N1CC[C@@H](Nc2nc(Nc3cc(C(N)=O)ccc3C)nc(N(C)CC(C)(C)C)n2)C1 (some centres undefined)
4. CC(CNc1nc(Nc2ccc3ncsc3c2)nc(N2CCN(C(=N)N)CC2)n1)c1ccccc1 (centres undefined)
5. CN(CCN(C)c1nc(NCC2CCC3CC2C3(C)C)nc(Nc2ccc3ncsc3c2)n1)C(=O)CCC(=O)O (centres undefined)
6. Cc1ccccc1NC(=S)N1CCN(c2nc(NCC(C)c3ccccc3)nc(Nc3ccc4ncsc4c3)n2)CC1 (centres undefined)

["< 1000 nM", "< 1000 nM", "< 1000 nM", "< 10000 nM", "< 10000 nM", "< 10000 nM"]

Could you tell me IC50 for each of these compounds? They are listed below.
1. Cc1ccc(C(=O)NO)cc1Nc1nc(N[C@H]2CCNC2)nc(N(C)CC(C)(C)C)n1
2. Cc1ccc(C(N)=O)cc1Nc1nc(O)nc(NC2CCCC2)n1
3. CC1(C)C2CCC(CNc3cc(Nc4ccc5ncsc5c4)nc(N4CCNCC4)n3)C1C2 (centres undefined)
4. CCC(C)N1CC[C@@H](Nc2nc(Nc3cc(C(N)=O)ccc3C)nc(N(C)CC(C)C)n2)C1 (some centres undefined)
5. Cc1ccc(C(N)=O)cc1Nc1nc(NC2CCN(Cc3ccc(C(F)(F)F)cc3)C2)nc(N(C)CC(C)C)n1 (centres undefined)

< 1000 nM
< 1000 nM
< 10000 nM
< 1000 nM
< 1000 nM

Could you tell me IC50 for each of these compounds? They are listed below.
1. CCCN1CC[C@@H](Nc2nc(Nc3cc(C(N)=O)ccc3C)nc(N(C)CC(C)C)n2)C1
2. CNCCN(C)c1nc(NC[C@@H](C)c2ccccc2)nc(-n2cnc3ccccc32)n1
3. CONC(=O)c1ccc(C)c(Nc2nc(N(C)CCN(C)C)nc(N(C)CC(C)(C)C)n2)c1

1: < 1000 nM; 2: < 10000 nM; 3: < 1000 nM

Could you tell me IC50 for each of these compounds? They are listed below.
1. CC(C)OCCNc1cc(N(C)C)nc(-n2cnc3ccccc32)n1
2. COc1ccccc1CN1CCC(Nc2nc(Nc3cc(C(N)=O)ccc3C)nc(N(C)CC(C)C)n2)C1 (centres undefined)
3. CONC(=O)c1ccc(C)c(Nc2nc(NCCNC(C)=O)nc(N(C)CC(C)(C)C)n2)c1
4. CNC(=O)c1ccc(C)c(Nc2nc(NC3CCN(Cc4ccccn4)C3)nc(N(C)CC(C)(C)C)n2)c1 (centres undefined)

["< 10000 nM", "< 1000 nM", "< 1000 nM", "< 1000 nM"]
